Target: rEOPA (recombinant endooligopeptidase A) (Homo sapiens, UniProt Q9GZM8)
Construct: poly-histidine tag or anchor protein (e.g. GST) (N, cleaved yes)
Sequence (Q9GZM8 whole entry): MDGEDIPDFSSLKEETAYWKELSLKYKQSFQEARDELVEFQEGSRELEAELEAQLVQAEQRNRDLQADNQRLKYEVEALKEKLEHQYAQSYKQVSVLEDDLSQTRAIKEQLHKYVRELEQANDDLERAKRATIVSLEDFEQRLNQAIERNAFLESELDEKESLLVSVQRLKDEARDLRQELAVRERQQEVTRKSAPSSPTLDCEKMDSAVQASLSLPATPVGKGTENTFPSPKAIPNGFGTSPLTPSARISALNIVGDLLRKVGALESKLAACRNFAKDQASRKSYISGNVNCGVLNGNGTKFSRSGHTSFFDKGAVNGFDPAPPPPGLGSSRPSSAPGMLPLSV
Experiment: Inhibition of the catalytic activity of recombinant EOPA (kinetic assay, quenched fluorescence peptide substrate or HPLC)
Details: rEOPA
pKi: −log10 of the molar value.
VALUE_TYPE: pKi

[[record]]
compound = "C[C@H](NC(=O)[C@H](C)NC(CCc1ccccc1)C(=O)O)C(=O)N[C@@H](Cc1ccc(O)cc1)C(=O)Nc1ccc(C(=O)O)cc1 (stereo partly shown)"
assayed_system = "rEOPA (recombinant endooligopeptidase A) (Homo sapiens, UniProt Q9GZM8)"
value_type = "pKi"
reported_measurement = "~7.77"

